Assay: NOVARTIS: Cytotoxicity against human hepatocellular carcinoma cell line (Huh7)
Assay type: toxicity, cell-based, Huh-7
Settings: Huh7 cells (hepatocellular carcinoma cell line)
MEASUREMENT_TYPE: CC50

compound=Cc1cc(Nc2ccc(N(C)C)cc2)n2ncnc2n1 measurement_type=CC50 result="> 100 µM"
compound=COc1ccc([C@@H]2C[C@H](OC(=O)c3ccc4c(c3)OCO4)C(=O)N2C)cc1 measurement_type=CC50 result="> 10 µM"

Dear colleague, please send me the reported CC50 for C=C(C[N+](C)(C)C)c1ccc([N+](=O)[O-])cc1 when you can. > 10 µM

For O=C1CC(c2ccc([N+](=O)[O-])cc2)C2=C(CC(c3ccc(F)cc3)CC2=O)N1 (stereo unspecified) , write its CC50. > 100 µM

Dear colleague, please send me the reported CC50 for CC1(C)C2CCC(C2)C1(C)NC(=S)NN=Cc1ccccn1 (stereo unspecified) when you can. 54.7 µM

* * *

Tested on: Plasmodium falciparum
Experiment: NOVARTIS: Inhibition of Plasmodium falciparum 3D7 (drug-susceptible) proliferation in erythrocyte-based infection assay
Assay type: functional, organism-based
Conditions: Plasmodium falciparum, 3D7
Cut-off 800 nM on EC50: below means rule met, at or above means rule not met.

Answered examples (4):
structure_string=Cc1ccc(C(=O)CSc2nc(N)c(C#N)c(-c3cccs3)c2C#N)cc1 cat="rule not met"
structure_string=N=C(N)NN=Cc1cc(Cl)ccc1O cat="rule met"
structure_string=Oc1ccc(Br)cc1CN1CCN(c2ccccn2)CC1 cat="rule not met"
structure_string=CCCN(CCC)C(=O)Cn1ccc(=N)c2ccccc21 cat="rule not met"

Next, consider the following compound.
Quick check: does Cc1cc(C)n(-c2cc(NN=Cc3cc(Br)ccc3O)nc(C)n2)n1 have EC50 under 800 nM? rule met

* * *

Tested on: Plasmodium falciparum
Assay: NOVARTIS: Inhibition of Plasmodium falciparum W2 (drug-resistant) proliferation in erythrocyte-based infection assay
Assay type: functional, organism-based
Settings: Plasmodium falciparum, W2; read-out: EC50
Here the recorded EC50 is given for each entry.
Expressed in nM, but write only the number.

molecule="Cc1ccc(N(C(=O)c2snc(C(=O)NC3CCCCC3)c2N)C(C(=O)NCCc2ccccc2)c2ccc(O)cc2)c(C)c1 (stereo not given)" assay_target="Plasmodium falciparum" measurement_type=EC50 units=nM readout_number=672
molecule="NC1=NC(c2ccccc2)N(c2ccccc2)C(N)=N1 (stereo not given)" assay_target="Plasmodium falciparum" measurement_type=EC50 units=nM readout_number=204
molecule=CC(C)(C)c1ccc(C=CC(=O)NCc2ccco2)cc1 assay_target="Plasmodium falciparum" measurement_type=EC50 units=nM readout_number=322
molecule=c1cc2c(cc1Nc1c3c(nc4nncn14)CCC3)OCCO2 assay_target="Plasmodium falciparum" measurement_type=EC50 units=nM readout_number=1480

Could you please provide reported EC50 for Cc1c(Cl)cccc1NC(=S)N1CCCN(c2ccc(C(F)(F)F)cc2[N+](=O)[O-])CC1 ? Thanks! 202

Note down EC50 recorded for CC(=O)Nc1ccc(C(C)=NNc2nc(Nc3cc(C)ccc3C)nc(N3CCOCC3)n2)cc1 2060

Tell me measured EC50 for CCOC(=O)c1ccc2c(c1)[n+](CC)c(/C=C/N(C)c1ccccc1)n2CC please. 588

Supply EC50 value. Item: CCNC(=O)C1CCN(c2cccc3c2C(=O)N(C2CCCCCCC2)C3=O)CC1 1310

Please give the documented EC50 of Cc1ccc(NC(=O)C2CSC(c3cccc(F)c3)N2C(=O)c2ccc(C(C)(C)C)cc2)cc1C (stereo not given) 8

* * *

Assay: NOVARTIS: Cytotoxicity against human hepatocellular carcinoma cell line (Huh7)
Type: toxicity, cell-based, Huh-7
Settings: Huh7 cells (hepatocellular carcinoma cell line)
Item-by-item account of CC50

// known answers, use as guide
compound=c1ccc2nc3c(nnc4ccccc43)nc2c1 result="28.5 µM"
compound="Cc1cccnc1NC(c1ccc([N+](=O)[O-])cc1)c1ccc2cccnc2c1O (stereo unspecified)" result="15 µM"
compound=CCc1nc2nc(C)cc(Nc3ccc(I)cc3)n2n1 result="> 100 µM"
compound=CCOC(=O)c1cnc2ccc3c(c(C)c(C)n3C)c2c1O result="> 10 µM"
compound=Clc1ccc2[nH]c3c(NCCC4=CCCCC4)ncnc3c2c1 result="15.8 µM"

Supply reported CC50 belonging to this compound: COc1ccccc1NC(=O)N(CCC(C)C)C(C)c1nc2ccccc2c(=O)n1-c1ccccc1Cl (stereo unspecified) > 10 µM

Given the compound CCn1c2c(c(=N)c3ccccc31)CCC2 , write its reported CC50. > 100 µM

Provide one value: measured CC50 of COc1ccc(C2CC(=O)C3=C(C2)NC(C)=C(C(=O)OC2CCCC2)C3c2ccc(F)cc2)cc1OC (stereo unspecified) 11.6 µM

Consider the compound C[N+]1(CC(=O)NNc2c3ccccc3nc3ccccc23)CCOCC1 and give its recorded CC50. > 100 µM

Provide measured CC50 value, entry: COc1ccc(-[n+]2cc(-c3ccc(Cl)cc3)n3c2SCCC3)cc1 > 100 µM

Output measured CC50 for this item: COc1ccc(N2CCN(C(=O)C3=C(C)C(=O)OC34CCCCC4)CC2)cc1 > 10 µM

* * *

Test system: Plasmodium falciparum
Test: NOVARTIS: Inhibition of Plasmodium falciparum 3D7 (drug-susceptible) proliferation in erythrocyte-based infection assay
Type: functional, organism-based
Conditions: Plasmodium falciparum, 3D7
MEASUREMENT_TYPE: pEC50
When answering, recall that pEC50 equals minus log10 of the concentration in mol/L, and write that number alone.

Worked set:
compound="CC1CC(C)CN(C(=O)c2sc3ccccc3c2Cl)C1 (stereo not given)" readout_number=7.45
compound=CCCCCCc1cc(O)c2c(c1)OC(C)(C)C1=C2CCN(C)C1 readout_number=7.32
compound=Cc1ccn2c(NC(C)(C)CC(C)(C)C)c(-c3ccccc3OC(=O)c3ccc(Cl)cc3Cl)nc2c1 readout_number=6.14
compound=CCN(CC)c1ccc(NCc2ccc3c(c2)OCO3)cc1 readout_number=6.22

Fill in pEC50 for record Cc1ccc2c(Cl)c(C(=O)N3CC(C)OC(C)C3)sc2c1 (stereo not given) 6.99

Quick one: give measured pEC50 for CCOC(=O)c1cnc2ccc(OCC)cc2c1NCCN(CC)CC 6.08

Quick one: give measured pEC50 for CCN1CCN(c2nc3ccccn3c(=O)c2C=C2SC(=S)N(C(C)C)C2=O)CC1 6.15

* * *

Entries and their CC50
Assay: NOVARTIS: Cytotoxicity against human hepatocellular carcinoma cell line (Huh7)
Assay type: toxicity, cell-based, Huh-7
Conditions: Huh7 cells (hepatocellular carcinoma cell line)

Past entries and their recorded results:
molecule=CCC(C)(C)c1ccc(OCCCC[n+]2ccc(C)cc2)c(C(C)(C)CC)c1 result="12 µM"
molecule="O=C(NCc1ccc2c(c1)OCO2)C1CNCC1c1ccc(C(F)(F)F)cc1 (stereo unspecified)" result="54.3 µM"
molecule=CCCCNC(=O)c1ccc2c(c1)N=C(c1cccc(OCC)c1)N(CCCN1CCCC1=O)C2 result="> 10 µM"
molecule=N#C/C(=C\n1cc(Cc2ccc(Cl)cc2Cl)c2ccccc21)c1nn(CCO)c(N)c1C#N result="> 10 µM"
molecule=CC[C@H]1CN2CCc3cc(OC)c(OC)cc3[C@@H]2C[C@@H]1C[C@@H]1NCCc2cc(OC)c(OC)cc21 result="0.0822 µM"
molecule=CCCn1cc(SCC(=O)NCc2ccco2)c2ccccc21 result="> 100 µM"

Tell me its CC50 given CCOc1cc(C=NN=C(N)N)ccc1OCc1ccccc1 as the entry. 10.1 µM

* * *

Each record here notes measured pEC50.
System: Plasmodium falciparum
Experiment: NOVARTIS: Inhibition of Plasmodium falciparum W2 (drug-resistant) proliferation in erythrocyte-based infection assay
Assay type: functional, organism-based
Details: Plasmodium falciparum, W2; read-out: EC50
// scale note: pEC50 = -log10(conc_M); give the bare number

Worked cases, answers included:
compound=COc1ccc(C=CC(=O)NC(=O)c2ccccc2O)cc1 measurement_type=pEC50 readout_number=6.32
compound=COc1ccc(C(OCCS(=O)(=O)CCO)(c2ccccc2)c2ccc(OC)cc2)cc1 measurement_type=pEC50 readout_number=7.31
compound=c1cncc(CCNc2nccn3c(-c4ccc5ccccc5c4)cnc23)c1 measurement_type=pEC50 readout_number=7.09
compound=COc1cc2ncnc(NC3CCN(Cc4ccccc4)CC3)c2cc1OC measurement_type=pEC50 readout_number=6.31
compound=CCn1c2ccccc2[n+]2c(C)cc(C)nc12 measurement_type=pEC50 readout_number=6.70

Give pEC50 for this entry on Plasmodium falciparum: c1ccc2c(c1)ccc[n+]2CCCCCC[n+]1cccc2ccccc21 6.11

State pEC50 (Plasmodium falciparum) of CC(C)c1ccc(/C=C/C(=O)NCc2ccco2)cc1 . 6.20

Name the recorded pEC50 of CCN(CC)CCCNc1nc2cc(OC)c(OC)cc2c2nc(-c3ccccc3)nn12 , assay system Plasmodium falciparum. 5.93
